All figures here come from PubChem BioAssay AID2060898.

tested on: 616215-338-R-J1-PDC complex spheroid viability; assay: Anticancer human tumor 616215-338-R-J1-PDC patient-derived colon adenocarcinoma cell line growth inhibition [RAS]; details: second compound 0.003 µM; first compound 0.003 µM; stronger effect = lower value
Endpoint: viability, T/C

1. CC1(C)CCC(Nc2ncc(C(F)(F)F)c(-c3c[nH]c4c(P(C)(C)=O)c(C#N)ccc34)n2)CN1 (centres undefined) + CCn1c(-c2cccnc2C(C)OC)c2c3cc(ccc31)N1CCOC(CC(NC(=O)C(C(C)C)N(C)C(=O)C3(F)CCN(C(=O)C#CC(C)(C)N(C)C)CC3)C(=O)N3CCCC(N3)C(=O)OCC(C)(C)C2)C1 = 111%
2. CCc1c2c(nc3ccc(O)cc13)-c1cc3c(c(=O)n1C2)COC(=O)[C@]3(O)CC + CCn1c(-c2cc(N3CCN(C)CC3)cnc2C(C)OC)c2c3cc(ccc31)-c1csc(n1)CC(NC(=O)C1CC1C)C(=O)N1CCCC(N1)C(=O)OCC(C)(C)C2 = 94.8%
3. CCc1c2c(nc3ccc(O)cc13)-c1cc3c(c(=O)n1C2)COC(=O)[C@]3(O)CC + CCn1c(-c2cccnc2C(C)OC)c2c3cc(ccc31)N1CCOC(CC(NC(=O)C(C(C)C)N(C)C(=O)C3(F)CCN(C(=O)C#CC(C)(C)N(C)C)CC3)C(=O)N3CCCC(N3)C(=O)OCC(C)(C)C2)C1 = 99%
4. CC1(C)CCC(Nc2ncc(C(F)(F)F)c(-c3c[nH]c4c(P(C)(C)=O)c(C#N)ccc34)n2)CN1 (centres undefined) + CCn1c(-c2cc(N3CCN(C)CC3)cnc2C(C)OC)c2c3cc(ccc31)-c1csc(n1)CC(NC(=O)C1CC1C)C(=O)N1CCCC(N1)C(=O)OCC(C)(C)C2 = 98.1%

* * *

Listed here: items and their measured viability, T/C.
test system: 616215-338-R-J1-PDC complex spheroid viability; test: Anticancer human tumor 616215-338-R-J1-PDC cell line growth inhibition [RAS]; settings: compound 0.01 µM; stronger effect = lower value;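 note: spheroids exposed to agents for seven days before viability readout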;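 for viability, T/C: 100% = DMSO vehicle control viability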
Endpoint: viability, T/C

1. C=CC(=O)N1CCN(c2nc(OCC3CCCN3C)nc3c(F)c(-c4nc(N)cc(C)c4C(F)(F)F)c(Cl)cc23)C(C)C1 (centres undefined) = 102% [middle of 12 runs]
2. CC(C)n1nc(-c2ccc3oc(N)nc3c2)c2c(N)ncnc21 = 107% [middle of 4 runs]
3. CCN1CCN(Cc2ccc(Nc3ncc(F)c(-c4cc(F)c5nc(C)n(C(C)C)c5c4)n3)nc2)CC1 = 104% [middle of 4 runs]
4. Nc1ccn(C2OC(CO)C(O)C2(F)F)c(=O)n1 (centres undefined) = 46.9% [middle of 4 runs]

* * *

test system: 616215-338-R-J1-PDC complex spheroid viability; assay: Anticancer human tumor 616215-338-R-J1-PDC cell line growth inhibition [RAS]; settings: curve of first compound; second compound 0.1 µM;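 note: spheroids exposed to agents for seven days before viability readout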
Listed here: items and their measured IC50.
Endpoint: IC50

1. CC(C)n1nc(-c2ccc3oc(N)nc3c2)c2c(N)ncnc21 + C#Cc1c(F)ccc2cc(O)cc(-c3ncc4c(N5CC6CCC(C5)N6)nc(OCC56CCCN5CC(F)C6)nc4c3F)c12 = > 0.1 µM
2. CC(C)n1nc(-c2ccc3oc(N)nc3c2)c2c(N)ncnc21 + C=CC(=O)N1CCN(c2nc(OCC3CCCN3C)nc3c(F)c(-c4nc(N)cc(C)c4C(F)(F)F)c(Cl)cc23)C(C)C1 = > 0.1 µM
3. CC(C)NCC(C(=O)N1CCN(c2ncnc3c2C(C)CC3O)CC1)c1ccc(Cl)cc1 (stereo not drawn) + C#Cc1c(F)ccc2cc(O)cc(-c3ncc4c(N5CC6CCC(C5)N6)nc(OCC56CCCN5CC(F)C6)nc4c3F)c12 = 8.47 µM

* * *

test system: 616215-338-R-J1-PDC complex spheroid viability; assay: Anticancer human tumor 616215-338-R-J1-PDC cell line growth inhibition [RAS]; settings: second compound 3.16 µM; first compound 3.16 µM; stronger effect = lower value;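 note: spheroids exposed to agents for seven days before viability readout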;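 for viability, T/C: 100% = DMSO vehicle control viability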
Listed here: items and their measured viability, T/C.
Endpoint: viability, T/C (%)

1) CC(Nc1ccc2c(c1)OCCn1cc(N3C(=O)OCC3C(F)F)nc1-2)C(N)=O (stereo not drawn) + C#Cc1c(F)ccc2cc(O)cc(-c3ncc4c(N5CC6CCC(C5)N6)nc(OCC56CCCN5CC(F)C6)nc4c3F)c12 = 91.5
2) NC1c2ccccc2OC12CCN(c1cnc3c(N4CCCc5ncccc54)n[nH]c3n1)CC2 (stereo not drawn) + C#Cc1c(F)ccc2cc(O)cc(-c3ncc4c(N5CC6CCC(C5)N6)nc(OCC56CCCN5CC(F)C6)nc4c3F)c12 = 35.6
3) C[C@@H](NC(=O)c1ncnc(N)c1Cl)c1ncc(C(=O)Nc2cc(C(F)(F)F)c(Cl)cn2)s1 + C#Cc1c(F)ccc2cc(O)cc(-c3ncc4c(N5CC6CCC(C5)N6)nc(OCC56CCCN5CC(F)C6)nc4c3F)c12 = 52.2

* * *

system: 616215-338-R-J1-PDC complex spheroid viability; assay: Anticancer human tumor 616215-338-R-J1-PDC cell line growth inhibition [RAS]; conditions: second compound 0.003 µM; first compound 10 µM; stronger effect = lower value;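 note: spheroids exposed to agents for seven days before viability readout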;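 for viability, T/C: 100% = DMSO vehicle control viability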
// boundary case: viability, T/C equal to 50% maps to FALSE; strictly smaller maps to TRUE

1) CC1(O)CCCC1n1c(=O)c(C(F)F)cc2cnc(NC3CCN(S(C)(=O)=O)CC3)nc21 (stereo not drawn) + CCn1c(-c2cc(N3CCN(C)CC3)cnc2C(C)OC)c2c3cc(ccc31)-c1csc(n1)CC(NC(=O)C1CC1C)C(=O)N1CCCC(N1)C(=O)OCC(C)(C)C2 = TRUE
2) CC(C)NCC(C(=O)N1CCN(c2ncnc3c2C(C)CC3O)CC1)c1ccc(Cl)cc1 (stereo not drawn) + CCn1c(-c2cc(N3CCN(C)CC3)cnc2C(C)OC)c2c3cc(ccc31)-c1csc(n1)CC(NC(=O)C1CC1C)C(=O)N1CCCC(N1)C(=O)OCC(C)(C)C2 = TRUE
3) CC(Nc1ccc2c(c1)OCCn1cc(N3C(=O)OCC3C(F)F)nc1-2)C(N)=O (stereo not drawn) + CCn1c(-c2cccnc2C(C)OC)c2c3cc(ccc31)N1CCOC(CC(NC(=O)C(C(C)C)N(C)C(=O)C3(F)CCN(C(=O)C#CC(C)(C)N(C)C)CC3)C(=O)N3CCCC(N3)C(=O)OCC(C)(C)C2)C1 = FALSE
4) Cc1nc(N2CCC3(CC2)COC(C)C3N)c(CO)nc1Sc1ccnc(N)c1Cl (stereo not drawn) + CCn1c(-c2cc(N3CCN(C)CC3)cnc2C(C)OC)c2c3cc(ccc31)-c1csc(n1)CC(NC(=O)C1CC1C)C(=O)N1CCCC(N1)C(=O)OCC(C)(C)C2 = TRUE
5) CC(Nc1ccc2c(c1)OCCn1cc(N3C(=O)OCC3C(F)F)nc1-2)C(N)=O (stereo not drawn) + CCn1c(-c2cc(N3CCN(C)CC3)cnc2C(C)OC)c2c3cc(ccc31)-c1csc(n1)CC(NC(=O)C1CC1C)C(=O)N1CCCC(N1)C(=O)OCC(C)(C)C2 = FALSE
6) C[C@@H](NC(=O)c1ncnc(N)c1Cl)c1ncc(C(=O)Nc2cc(C(F)(F)F)c(Cl)cn2)s1 + CCn1c(-c2cccnc2C(C)OC)c2c3cc(ccc31)N1CCOC(CC(NC(=O)C(C(C)C)N(C)C(=O)C3(F)CCN(C(=O)C#CC(C)(C)N(C)C)CC3)C(=O)N3CCCC(N3)C(=O)OCC(C)(C)C2)C1 = FALSE
7) CC(=O)OC12COC1CC(O)C1(C)C(=O)C(O)C3=C(C)C(OC(=O)C(O)C(NC(=O)OC(C)(C)C)c4ccccc4)CC(O)(C(OC(=O)c4ccccc4)C21)C3(C)C (stereo not drawn) + CCn1c(-c2cc(N3CCN(C)CC3)cnc2C(C)OC)c2c3cc(ccc31)-c1csc(n1)CC(NC(=O)C1CC1C)C(=O)N1CCCC(N1)C(=O)OCC(C)(C)C2 = TRUE

* * *

test system: 616215-338-R-J1-PDC complex spheroid viability; experiment: Anticancer human tumor 616215-338-R-J1-PDC cell line growth inhibition [RAS]; settings: second compound 0.003 µM; first compound 0.1 µM; stronger effect = lower value;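 note: spheroids exposed to agents for seven days before viability readout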;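 for viability, T/C: 100% = DMSO vehicle control viability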
Endpoint: viability, T/C (%)

1. C[C@@H](NC(=O)c1ncnc(N)c1Cl)c1ncc(C(=O)Nc2cc(C(F)(F)F)c(Cl)cn2)s1 + CCn1c(-c2cc(N3CCN(C)CC3)cnc2C(C)OC)c2c3cc(ccc31)-c1csc(n1)CC(NC(=O)C1CC1C)C(=O)N1CCCC(N1)C(=O)OCC(C)(C)C2 = 129
2. Cc1nc(N2CCC3(CC2)COC(C)C3N)c(CO)nc1Sc1ccnc(N)c1Cl (stereo not given) + CCn1c(-c2cc(N3CCN(C)CC3)cnc2C(C)OC)c2c3cc(ccc31)-c1csc(n1)CC(NC(=O)C1CC1C)C(=O)N1CCCC(N1)C(=O)OCC(C)(C)C2 = 92.5
3. C=CC(=O)Nc1cc(Nc2nccc(-c3cn(C)c4ccccc34)n2)c(OC)cc1N(C)CCN(C)C + CCn1c(-c2cc(N3CCN(C)CC3)cnc2C(C)OC)c2c3cc(ccc31)-c1csc(n1)CC(NC(=O)C1CC1C)C(=O)N1CCCC(N1)C(=O)OCC(C)(C)C2 = 81.9
4. CCN1CCN(Cc2ccc(Nc3ncc(F)c(-c4cc(F)c5nc(C)n(C(C)C)c5c4)n3)nc2)CC1 + CCn1c(-c2cc(N3CCN(C)CC3)cnc2C(C)OC)c2c3cc(ccc31)-c1csc(n1)CC(NC(=O)C1CC1C)C(=O)N1CCCC(N1)C(=O)OCC(C)(C)C2 = 120
5. CC(=O)OC12COC1CC(O)C1(C)C(=O)C(O)C3=C(C)C(OC(=O)C(O)C(NC(=O)OC(C)(C)C)c4ccccc4)CC(O)(C(OC(=O)c4ccccc4)C21)C3(C)C (stereo not given) + CCn1c(-c2cc(N3CCN(C)CC3)cnc2C(C)OC)c2c3cc(ccc31)-c1csc(n1)CC(NC(=O)C1CC1C)C(=O)N1CCCC(N1)C(=O)OCC(C)(C)C2 = 18.3
6. O=C(c1ccc(F)c(F)c1Nc1ccc(I)cc1F)N1CC(O)([C@@H]2CCCCN2)C1 + CCn1c(-c2cc(N3CCN(C)CC3)cnc2C(C)OC)c2c3cc(ccc31)-c1csc(n1)CC(NC(=O)C1CC1C)C(=O)N1CCCC(N1)C(=O)OCC(C)(C)C2 = 20.6
7. CC(C)NCC(C(=O)N1CCN(c2ncnc3c2C(C)CC3O)CC1)c1ccc(Cl)cc1 (stereo not given) + CCn1c(-c2cc(N3CCN(C)CC3)cnc2C(C)OC)c2c3cc(ccc31)-c1csc(n1)CC(NC(=O)C1CC1C)C(=O)N1CCCC(N1)C(=O)OCC(C)(C)C2 = 107
8. C=CC(=O)Nc1cc(Nc2nccc(-c3cn(C)c4ccccc34)n2)c(OC)cc1N(C)CCN(C)C + CCn1c(-c2cccnc2C(C)OC)c2c3cc(ccc31)N1CCOC(CC(NC(=O)C(C(C)C)N(C)C(=O)C3(F)CCN(C(=O)C#CC(C)(C)N(C)C)CC3)C(=O)N3CCCC(N3)C(=O)OCC(C)(C)C2)C1 = 112
9. C[C@@H](NC(=O)c1ncnc(N)c1Cl)c1ncc(C(=O)Nc2cc(C(F)(F)F)c(Cl)cn2)s1 + CCn1c(-c2cccnc2C(C)OC)c2c3cc(ccc31)N1CCOC(CC(NC(=O)C(C(C)C)N(C)C(=O)C3(F)CCN(C(=O)C#CC(C)(C)N(C)C)CC3)C(=O)N3CCCC(N3)C(=O)OCC(C)(C)C2)C1 = 105
10. CC(=O)OC12COC1CC(O)C1(C)C(=O)C(O)C3=C(C)C(OC(=O)C(O)C(NC(=O)OC(C)(C)C)c4ccccc4)CC(O)(C(OC(=O)c4ccccc4)C21)C3(C)C (stereo not given) + CCn1c(-c2cccnc2C(C)OC)c2c3cc(ccc31)N1CCOC(CC(NC(=O)C(C(C)C)N(C)C(=O)C3(F)CCN(C(=O)C#CC(C)(C)N(C)C)CC3)C(=O)N3CCCC(N3)C(=O)OCC(C)(C)C2)C1 = 23.1
11. Nc1ccn(C2OC(CO)C(O)C2(F)F)c(=O)n1 (stereo not given) + CCn1c(-c2cc(N3CCN(C)CC3)cnc2C(C)OC)c2c3cc(ccc31)-c1csc(n1)CC(NC(=O)C1CC1C)C(=O)N1CCCC(N1)C(=O)OCC(C)(C)C2 = 10.3
12. CC(C)NCC(C(=O)N1CCN(c2ncnc3c2C(C)CC3O)CC1)c1ccc(Cl)cc1 (stereo not given) + CCn1c(-c2cccnc2C(C)OC)c2c3cc(ccc31)N1CCOC(CC(NC(=O)C(C(C)C)N(C)C(=O)C3(F)CCN(C(=O)C#CC(C)(C)N(C)C)CC3)C(=O)N3CCCC(N3)C(=O)OCC(C)(C)C2)C1 = 95.9
13. CC(C)n1nc(-c2ccc3oc(N)nc3c2)c2c(N)ncnc21 + CCn1c(-c2cc(N3CCN(C)CC3)cnc2C(C)OC)c2c3cc(ccc31)-c1csc(n1)CC(NC(=O)C1CC1C)C(=O)N1CCCC(N1)C(=O)OCC(C)(C)C2 = 39.2
14. CC(Nc1ccc2c(c1)OCCn1cc(N3C(=O)OCC3C(F)F)nc1-2)C(N)=O (stereo not given) + CCn1c(-c2cc(N3CCN(C)CC3)cnc2C(C)OC)c2c3cc(ccc31)-c1csc(n1)CC(NC(=O)C1CC1C)C(=O)N1CCCC(N1)C(=O)OCC(C)(C)C2 = 99.5
15. CCN1CCN(Cc2ccc(Nc3ncc(F)c(-c4cc(F)c5nc(C)n(C(C)C)c5c4)n3)nc2)CC1 + CCn1c(-c2cccnc2C(C)OC)c2c3cc(ccc31)N1CCOC(CC(NC(=O)C(C(C)C)N(C)C(=O)C3(F)CCN(C(=O)C#CC(C)(C)N(C)C)CC3)C(=O)N3CCCC(N3)C(=O)OCC(C)(C)C2)C1 = 121
